target: HDAC1 (Homo sapiens, UniProt Q13547); construct: cDNAs corresponding to the full length human HDAC1, 2, 3 and 11 were cloned into pBlueBac4.5 vector; FLAG (C); made in house; host or cells: Sf-9 insect cells (baculovirus); assay: Fluorescence-based HDAC enzyme assay, recombinant HDAC1; assay type: biochemical; settings: recombinant human HDAC enzyme in vitro; read-out: IC50 (μM) HD1
Sequence (Q13547 whole entry): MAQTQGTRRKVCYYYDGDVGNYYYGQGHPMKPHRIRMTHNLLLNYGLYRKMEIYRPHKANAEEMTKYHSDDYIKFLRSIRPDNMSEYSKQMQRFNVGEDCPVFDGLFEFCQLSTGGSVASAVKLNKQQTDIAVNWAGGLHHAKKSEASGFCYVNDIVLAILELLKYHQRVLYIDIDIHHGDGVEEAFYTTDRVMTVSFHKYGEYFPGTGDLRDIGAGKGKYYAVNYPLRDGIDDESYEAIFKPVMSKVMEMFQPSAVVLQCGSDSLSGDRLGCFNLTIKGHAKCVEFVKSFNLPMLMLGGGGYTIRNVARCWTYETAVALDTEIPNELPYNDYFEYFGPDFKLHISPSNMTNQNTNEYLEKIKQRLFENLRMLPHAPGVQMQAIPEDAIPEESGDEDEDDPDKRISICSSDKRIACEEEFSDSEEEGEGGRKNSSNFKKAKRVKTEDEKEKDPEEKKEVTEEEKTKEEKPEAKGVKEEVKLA
Lab note: compare IC50 with 0.06 µM, writing class 1 if less and class 0 if equal or more.

For Nc1ccc(-c2ccccc2)cc1NC(=O)c1ccc(N2CC[C@H](N)C2)cc1 , is the recorded IC50 below the cut-off of 0.06 µM?
class 1

For Nc1ccccc1NC(=O)c1ccc(N2CC[C@H](Nc3cccnc3)C2)cc1 , is the recorded IC50 below the cut-off of 0.06 µM?
class 0

For O=C(Nc1ccccc1)c1ccc(CNc2nccc(-c3cccnc3)n2)cc1 , is the recorded IC50 below the cut-off of 0.06 µM?
class 0

For CN1CCN(c2ccc(C(=O)Nc3cc(-c4ccccn4)ccc3N)cc2)CC1 , is the recorded IC50 below the cut-off of 0.06 µM?
class 0

For Nc1ccc(-c2ccccc2)cc1NC(=O)c1ccc(N2CCC(N)CC2)cc1 , is the recorded IC50 below the cut-off of 0.06 µM?
class 1

* * *

molecular target: HDAC3 (Homo sapiens, UniProt O15379); construct: cDNAs corresponding to the full length human HDAC1, 2, 3 and 11 were cloned into pBlueBac4.5 vector; FLAG (C); made in house; host or cells: Sf-9 insect cells (baculovirus); assay: Fluorescence-based HDAC enzyme assay, recombinant HDAC3; type: biochemical; conditions: recombinant human HDAC enzyme in vitro; read-out: IC50 (μM) HD3
Sequence (O15379 whole entry): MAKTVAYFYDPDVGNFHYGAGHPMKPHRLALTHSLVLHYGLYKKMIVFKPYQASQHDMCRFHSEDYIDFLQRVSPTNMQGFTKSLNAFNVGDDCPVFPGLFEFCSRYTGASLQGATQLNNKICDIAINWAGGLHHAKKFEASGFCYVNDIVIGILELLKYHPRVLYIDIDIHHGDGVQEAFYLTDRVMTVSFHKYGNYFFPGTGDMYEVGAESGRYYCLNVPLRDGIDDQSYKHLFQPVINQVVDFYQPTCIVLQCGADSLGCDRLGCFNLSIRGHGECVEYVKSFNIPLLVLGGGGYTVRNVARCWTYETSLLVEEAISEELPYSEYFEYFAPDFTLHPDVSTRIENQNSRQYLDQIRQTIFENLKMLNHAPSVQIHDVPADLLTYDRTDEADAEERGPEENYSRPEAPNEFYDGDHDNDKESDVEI
experimental readout: IC50

The reported HDAC3 (Homo sapiens, UniProt O15379) IC50 of Nc1ccc(-c2ccccc2)cc1NC(=O)c1ccc(N2CC[C@H](N)C2)cc1 is 9 µM

The reported HDAC3 (Homo sapiens, UniProt O15379) IC50 of Nc1ccccc1NC(=O)c1ccc(N2CC[C@H](Nc3cccnc3)C2)cc1 is 0.3 µM

The reported HDAC3 (Homo sapiens, UniProt O15379) IC50 of O=C(Nc1ccccc1)c1ccc(CNc2nccc(-c3cccnc3)n2)cc1 is > 10 µM

* * *

Target: HDAC8 (Homo sapiens, UniProt Q9BY41)
Construct: HDAC6 and 8 were cloned as full length N-terminally His-tagged protein; His tag (N); made in house; host or cells: Sf-9 insect cells (baculovirus)
Sequence (Q9BY41 1-377): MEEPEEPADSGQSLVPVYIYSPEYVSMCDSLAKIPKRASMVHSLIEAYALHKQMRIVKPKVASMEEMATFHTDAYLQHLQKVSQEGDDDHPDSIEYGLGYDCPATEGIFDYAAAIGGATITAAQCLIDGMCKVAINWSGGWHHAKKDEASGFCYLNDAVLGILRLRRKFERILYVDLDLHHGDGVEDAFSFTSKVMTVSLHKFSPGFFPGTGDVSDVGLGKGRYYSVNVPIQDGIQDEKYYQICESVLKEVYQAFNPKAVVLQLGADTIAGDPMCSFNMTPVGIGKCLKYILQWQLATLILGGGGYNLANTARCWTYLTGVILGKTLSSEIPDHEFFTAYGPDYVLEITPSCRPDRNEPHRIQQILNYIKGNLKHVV
Experiment: Fluorescence-based HDAC enzyme assay, recombinant HDAC8
Assay type: biochemical
Conditions: recombinant human HDAC enzyme in vitro; read-out: IC50 (μM) HD8
Would you kindly list IC50 for each of these compounds?

The reported HDAC8 (Homo sapiens, UniProt Q9BY41) IC50 of CN1CCN(c2ccc(C(=O)Nc3cc(-c4ccccn4)ccc3N)cc2)CC1 [Compound F] is > 10 µM

The reported HDAC8 (Homo sapiens, UniProt Q9BY41) IC50 of Nc1ccccc1NC(=O)c1ccc(N2CC[C@H](Nc3cccnc3)C2)cc1 [Compound B] is 1.63 µM

The reported HDAC8 (Homo sapiens, UniProt Q9BY41) IC50 of CN1CCN(c2ccc(C(=O)Nc3cc(-c4ccncc4)ccc3N)cc2)CC1 [Compound G] is > 10 µM

The reported HDAC8 (Homo sapiens, UniProt Q9BY41) IC50 of CC(C)N1CCN(c2ccc(C(=O)Nc3cc(-c4ccncc4)ccc3N)cc2)CC1 [Compound H] is > 10 µM

The reported HDAC8 (Homo sapiens, UniProt Q9BY41) IC50 of Nc1ccc(-c2ccccc2)cc1NC(=O)c1ccc(N2CC[C@H](N)C2)cc1 [Compound D] is > 10 µM

The reported HDAC8 (Homo sapiens, UniProt Q9BY41) IC50 of Nc1ccc(-c2ccccc2)cc1NC(=O)c1ccc(N2CCC(N)CC2)cc1 [Compound E] is > 10 µM

* * *

molecular target: HDAC2 (Homo sapiens, UniProt Q92769); construct: cDNAs corresponding to the full length human HDAC1, 2, 3 and 11 were cloned into pBlueBac4.5 vector; FLAG (C); made in house; host or cells: Sf-9 insect cells (baculovirus); assay: Fluorescence-based HDAC enzyme assay, recombinant HDAC2; assay type: biochemical; conditions: recombinant human HDAC enzyme in vitro; read-out: IC50 (μM) HD2
Sequence (Q92769 whole entry): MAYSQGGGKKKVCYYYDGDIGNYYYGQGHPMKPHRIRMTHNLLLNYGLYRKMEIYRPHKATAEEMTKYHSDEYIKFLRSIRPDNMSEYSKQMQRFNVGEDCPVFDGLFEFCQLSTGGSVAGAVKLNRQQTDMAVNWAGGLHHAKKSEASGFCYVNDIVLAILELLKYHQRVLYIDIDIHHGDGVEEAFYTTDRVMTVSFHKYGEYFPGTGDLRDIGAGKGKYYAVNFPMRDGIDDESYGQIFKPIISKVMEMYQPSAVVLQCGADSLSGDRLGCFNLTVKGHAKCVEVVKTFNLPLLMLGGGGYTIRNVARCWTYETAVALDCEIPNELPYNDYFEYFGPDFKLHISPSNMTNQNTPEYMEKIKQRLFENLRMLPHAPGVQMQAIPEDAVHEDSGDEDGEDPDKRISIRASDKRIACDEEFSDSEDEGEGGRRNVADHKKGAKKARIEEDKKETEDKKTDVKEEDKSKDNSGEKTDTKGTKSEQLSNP
Would you kindly list IC50 for each of these compounds?
Kindly answer with a numeric value in µM, unit omitted.

Sure, the documented IC50 for CN1CCN(c2ccc(C(=O)Nc3cc(-c4ccccn4)ccc3N)cc2)CC1 is 0.1

Sure, the documented IC50 for Nc1ccc(-c2ccccc2)cc1NC(=O)c1ccc(N2CCC(N)CC2)cc1 is 0.08

Sure, the documented IC50 for CN1CCN(c2ccc(C(=O)Nc3cc(-c4ccncc4)ccc3N)cc2)CC1 is 0.1

Sure, the documented IC50 for Nc1ccccc1NC(=O)c1ccc(N2CC[C@H](Nc3cccnc3)C2)cc1 is 0.5

Sure, the documented IC50 for CC(C)N1CCN(c2ccc(C(=O)Nc3cc(-c4ccncc4)ccc3N)cc2)CC1 is 0.09

Sure, the documented IC50 for Nc1ccc(-c2ccccc2)cc1NC(=O)c1ccc(N2CC[C@H](N)C2)cc1 is 0.09
